Can you tell me IC50 for the items I'm about to list?
assay_text: Inhibition of sICAM1/LFA1 interaction-mediated human THP1 cell adhesion after 1 hr by ELISA
One number for each entry, in µM.

Reference set, count: 2
CC(C)CNC(=O)/C=C/CCCCCC/C=C/c1ccc2c(c1)OCO2 [PIPERCHABAMIDE D] : 83.9
O=C(/C=C/C=C/CC/C=C/c1ccc2c(c1)OCO2)N1CCCCC1 [Dehydropipernoline] : 17.6

Shifting focus to the molecule that follows.
Req: // lookup IC50 for O=C(/C=C/CCCC/C=C/c1ccc2c(c1)OCO2)N1CCCCC1
Resp: 25.7
